- ASSAY_SYSTEM: UniProtKB P31639
- Sequence (P31639 1-672): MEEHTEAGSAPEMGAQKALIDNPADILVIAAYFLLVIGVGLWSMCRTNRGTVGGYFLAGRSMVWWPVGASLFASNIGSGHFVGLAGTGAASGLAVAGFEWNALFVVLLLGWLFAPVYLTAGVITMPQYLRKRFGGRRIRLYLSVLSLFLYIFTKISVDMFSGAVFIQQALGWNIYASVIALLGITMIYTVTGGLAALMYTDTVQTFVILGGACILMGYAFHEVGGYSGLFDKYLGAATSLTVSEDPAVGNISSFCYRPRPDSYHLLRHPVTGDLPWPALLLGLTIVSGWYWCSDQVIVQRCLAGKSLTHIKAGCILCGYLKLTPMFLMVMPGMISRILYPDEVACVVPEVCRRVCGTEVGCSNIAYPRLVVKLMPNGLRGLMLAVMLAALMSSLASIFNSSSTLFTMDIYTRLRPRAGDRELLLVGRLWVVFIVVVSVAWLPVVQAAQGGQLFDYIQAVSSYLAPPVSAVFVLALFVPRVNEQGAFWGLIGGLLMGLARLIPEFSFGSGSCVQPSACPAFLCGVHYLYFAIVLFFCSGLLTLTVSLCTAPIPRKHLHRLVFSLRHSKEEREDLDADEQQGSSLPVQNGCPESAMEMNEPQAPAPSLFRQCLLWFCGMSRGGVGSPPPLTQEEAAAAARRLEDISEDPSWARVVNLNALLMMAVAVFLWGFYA
- PROTOCOL_NOTES: Assay for inhibitory effects on human SGLT2 activity (uptake of methyl-α-D-glucopyranoside in CS2-5E cells)
- APPLIED_CONDITIONS: inhibition of 14C-labeled α-MG uptake (1 mM), CHO-K1 cells stably expressing human SGLT2 (CS2-5E), 37° C., 1 hour
MEASURE_NAME: pIC50
Just so you know, pIC50 here is -log10 of the concentration in molar units; reply with that number alone.

INPUT: Fill blank: measured pIC50 of the molecule COc1ccc(Cc2ccccc2O[C@@H]2O[C@H](CF)[C@@H](O)[C@H](O)[C@H]2O)cc1 is ____.
OUTPUT: 7.07
